target: Brd2(1)W097H (Homo sapiens, UniProt P25440, W97H); construct: first bromodomain (e.g., Brd2(1)) versus second bromodomain (e.g., Brd2(2)); His6 (TEV-cleavable) (N); made in house; host or cells: E. coli BL21(DE3); assay: Differential scanning fluorimetry (DSF) thermal shift; type: binding; details: compound 10 μM (LightCycler480) or 30 μM (Mx3005P), read-out: Thermal stabilization (ΔTm)
Sequence (P25440 74-180 W97H limits assumed): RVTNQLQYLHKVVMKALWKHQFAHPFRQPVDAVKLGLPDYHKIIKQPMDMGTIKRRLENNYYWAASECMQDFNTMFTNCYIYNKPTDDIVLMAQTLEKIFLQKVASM
measured-endpoint: ΔTm at 10 µM (°C)
Report the figure in °C without appending any unit label.

// below: answered molecules
molecule="COC(=O)CC1N=C(c2cccc3[nH]ccc23)c2cc(OC)ccc2-n2c(C)nnc21 (centres unmarked) [compound 28]" measured_endpoint="ΔTm at 10 µM" units_of_measure=°C observed_value=0.6
molecule="COC(=O)CC1N=C(c2ccc(Cl)cc2C)c2cc(OC)ccc2-n2c(C)nnc21 (centres unmarked) [compound 24]" measured_endpoint="ΔTm at 10 µM" units_of_measure=°C observed_value=0.9
molecule="COC(=O)CC1N=C(c2ccc(Cl)c(C)c2)c2cc(OC)ccc2-n2c(C)nnc21 (centres unmarked) [compound 25]" measured_endpoint="ΔTm at 10 µM" units_of_measure=°C observed_value=0.2

GET /value?item= COC(=O)CC1N=C(c2cc(C)ccc2C)c2cc(OC)ccc2-n2c(C)nnc21 (centres unmarked) [compound 26] &field=ΔTm at 10 µM returns -0.4

GET /value?item= COC(=O)CC1N=C(c2cc(Cl)ccc2Cl)c2cc(OC)ccc2-n2c(C)nnc21 (centres unmarked) [compound 27] &field=ΔTm at 10 µM returns -0.4

---

biological target: Brd2(1)W097F (Homo sapiens, UniProt P25440, W97F); construct: first bromodomain (e.g., Brd2(1)) versus second bromodomain (e.g., Brd2(2)); His6 (TEV-cleavable) (N); made in house; host or cells: E. coli BL21(DE3); assay: Differential scanning fluorimetry (DSF) thermal shift; type: binding; settings: compound 10 μM (LightCycler480) or 30 μM (Mx3005P), read-out: Thermal stabilization (ΔTm)
Sequence (P25440 74-180 W97F limits assumed): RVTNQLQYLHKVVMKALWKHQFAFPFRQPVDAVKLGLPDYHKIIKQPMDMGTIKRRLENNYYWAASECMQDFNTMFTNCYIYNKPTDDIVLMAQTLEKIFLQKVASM
measured-endpoint: ΔTm at 10 µM (°C)
Report the figure in °C without appending any unit label.

// below: answered compounds
compound="COC(=O)CC1N=C(c2ccc(Cl)cc2C)c2cc(OC)ccc2-n2c(C)nnc21 (centres unmarked)" experimental_system="Brd2(1)W097F (Homo sapiens, UniProt P25440, W97F)" measured_endpoint="ΔTm at 10 µM" units_of_measure=°C observed_value=1.4
compound="COC(=O)CC1N=C(c2ccc(Cl)c(C)c2)c2cc(OC)ccc2-n2c(C)nnc21 (centres unmarked)" experimental_system="Brd2(1)W097F (Homo sapiens, UniProt P25440, W97F)" measured_endpoint="ΔTm at 10 µM" units_of_measure=°C observed_value=-0.1
compound="COC(=O)CC1N=C(c2cccc3[nH]ccc23)c2cc(OC)ccc2-n2c(C)nnc21 (centres unmarked)" experimental_system="Brd2(1)W097F (Homo sapiens, UniProt P25440, W97F)" measured_endpoint="ΔTm at 10 µM" units_of_measure=°C observed_value=1.9
compound="COC(=O)CC1N=C(c2cc(Cl)ccc2Cl)c2cc(OC)ccc2-n2c(C)nnc21 (centres unmarked)" experimental_system="Brd2(1)W097F (Homo sapiens, UniProt P25440, W97F)" measured_endpoint="ΔTm at 10 µM" units_of_measure=°C observed_value=0

GET /value?item= COC(=O)CC1N=C(c2cc(C)ccc2C)c2cc(OC)ccc2-n2c(C)nnc21 (centres unmarked) &field=ΔTm at 10 µM returns 0.1

---

biological target: Brd2(2)L383I (Homo sapiens, UniProt P25440, L383I); construct: first bromodomain (e.g., Brd2(1)) versus second bromodomain (e.g., Brd2(2)); His6 (TEV-cleavable) (N); assay: Isothermal titration calorimetry (ITC); conditions: ITC at 25 °C
Sequence (P25440 344-453 L383I limits assumed): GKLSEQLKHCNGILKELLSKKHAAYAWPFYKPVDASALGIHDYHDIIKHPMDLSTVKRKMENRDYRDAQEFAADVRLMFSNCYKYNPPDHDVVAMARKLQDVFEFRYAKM
measured-endpoint: pKd
Just the number, please; pKd means minus log10 of the concentration in mol/L.

GET /value?item= COC(=O)[C@H](C)[C@@H]1N=C(c2ccc(Cl)cc2)c2cc(OC)ccc2-n2c(C)nnc21 &field=pKd returns 7.57

---

target: Brd2(2)W370F (Homo sapiens, UniProt P25440, W370F); construct: first bromodomain (e.g., Brd2(1)) versus second bromodomain (e.g., Brd2(2)); His6 (TEV-cleavable) (N); made in house; host or cells: E. coli BL21(DE3); experiment: Differential scanning fluorimetry (DSF) thermal shift; format: binding; conditions: compound 10 μM (LightCycler480) or 30 μM (Mx3005P), read-out: Thermal stabilization (ΔTm)
Sequence (P25440 344-453 W370F limits assumed): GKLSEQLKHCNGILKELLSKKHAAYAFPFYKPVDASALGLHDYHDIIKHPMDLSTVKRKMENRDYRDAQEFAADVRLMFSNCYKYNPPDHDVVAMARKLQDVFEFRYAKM
measured-endpoint: ΔTm at 10 µM (°C)
Report the figure in °C without appending any unit label.

// below: answered molecules
molecule="COC(=O)CC1N=C(c2cc(C)ccc2C)c2cc(OC)ccc2-n2c(C)nnc21 (centres unmarked) [compound 26]" measured_endpoint="ΔTm at 10 µM" units_of_measure=°C observed_value=0.6
molecule="COC(=O)CC1N=C(c2ccc(Cl)cc2C)c2cc(OC)ccc2-n2c(C)nnc21 (centres unmarked) [compound 24]" measured_endpoint="ΔTm at 10 µM" units_of_measure=°C observed_value=2.8
molecule="COC(=O)CC1N=C(c2cc(Cl)ccc2Cl)c2cc(OC)ccc2-n2c(C)nnc21 (centres unmarked) [compound 27]" measured_endpoint="ΔTm at 10 µM" units_of_measure=°C observed_value=0.3
molecule="COC(=O)CC1N=C(c2cccc3[nH]ccc23)c2cc(OC)ccc2-n2c(C)nnc21 (centres unmarked) [compound 28]" measured_endpoint="ΔTm at 10 µM" units_of_measure=°C observed_value=5.2

Kindly review the next molecule as well.
Form: item COC(=O)CC1N=C(c2ccc(Cl)c(C)c2)c2cc(OC)ccc2-n2c(C)nnc21 (centres unmarked) [compound 25] ; test system Brd2(2)W370F (Homo sapiens, UniProt P25440, W370F); ΔTm at 10 µM: 1.5

---

target: Brd2(1) (Homo sapiens, UniProt P25440); construct: first bromodomain (e.g., Brd2(1)) versus second bromodomain (e.g., Brd2(2)); His6 (TEV-cleavable) (N); made in house; host or cells: E. coli BL21(DE3); plasmid a gift of the SGC Oxford; assay: Differential scanning fluorimetry (DSF) thermal shift; type: binding; conditions: compound 10 μM (LightCycler480) or 30 μM (Mx3005P), read-out: Thermal stabilization (ΔTm)
Sequence (P25440 74-180 limits assumed): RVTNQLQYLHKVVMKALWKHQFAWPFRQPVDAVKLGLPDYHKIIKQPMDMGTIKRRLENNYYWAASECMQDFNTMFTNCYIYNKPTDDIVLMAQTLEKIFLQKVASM
# label = true if ΔTm at 10 µM < 3 °C else false

compound="COC(=O)CC1N=C(c2cc(C)ccc2C)c2cc(OC)ccc2-n2c(C)nnc21 (centres unmarked)" category=true
compound=COC(=O)[C@H](C)[C@@H]1N=C(c2ccc(Cl)cc2)c2cc(OC)ccc2-n2c(C)nnc21 category=false
compound="COC(=O)CC1N=C(c2ccc(Cl)c(C)c2)c2cc(OC)ccc2-n2c(C)nnc21 (centres unmarked)" category=true
compound="COC(=O)CC1N=C(c2ccc(Cl)cc2C)c2cc(OC)ccc2-n2c(C)nnc21 (centres unmarked)" category=false
compound="COC(=O)CC1N=C(c2cc(Cl)ccc2Cl)c2cc(OC)ccc2-n2c(C)nnc21 (centres unmarked)" category=true

Ask: Does the reported ΔTm at 10 µM of the following compound sit strictly below 3 °C? COC(=O)[C@@H](C)[C@@H]1N=C(c2ccc(Cl)cc2)c2cc(OC)ccc2-n2c(C)nnc21
Result: true

Ask: Does the reported ΔTm at 10 µM of the following compound sit strictly below 3 °C? COC(=O)CC1N=C(c2cccc3[nH]ccc23)c2cc(OC)ccc2-n2c(C)nnc21 (centres unmarked)
Result: false

Ask: Does the reported ΔTm at 10 µM of the following compound sit strictly below 3 °C? COC(=O)CC1N=C(c2ccc(Cl)cc2)c2cc(OC)cc(C)c2-n2c(C)nnc21 (centres unmarked)
Result: true

---

molecular target: Brd2(2) (Homo sapiens, UniProt P25440); construct: first bromodomain (e.g., Brd2(1)) versus second bromodomain (e.g., Brd2(2)); His6 (TEV-cleavable) (N); made in house; host or cells: E. coli BL21(DE3); plasmid a gift of the SGC Oxford; test: Isothermal titration calorimetry (ITC); assay type: binding; conditions: ITC at 25 °C
Sequence (P25440 344-453 limits assumed): as the sequence (P25440 344-453 W370F limits assumed) above, with F27W counted along it
measured-endpoint: pKd
Just the number, please; pKd means minus log10 of the concentration in mol/L.

GET /value?item= COC(=O)[C@H](C)[C@@H]1N=C(c2ccc(Cl)cc2)c2cc(OC)ccc2-n2c(C)nnc21 &field=pKd returns 6.52

---

target: Brd2(1) (Homo sapiens, UniProt P25440); construct: first bromodomain (e.g., Brd2(1)) versus second bromodomain (e.g., Brd2(2)); His6 (TEV-cleavable) (N); made in house; host or cells: E. coli BL21(DE3); plasmid a gift of the SGC Oxford; assay: Isothermal titration calorimetry (ITC); format: binding; details: ITC at 30 °C, […] DMSO
measured-endpoint: pKd
Just the number, please; pKd means minus log10 of the concentration in mol/L.

GET /value?item= COC(=O)CC1N=C(c2cccc3[nH]ccc23)c2cc(OC)ccc2-n2c(C)nnc21 (stereo not shown) [compound 28] &field=pKd returns 6.11
